Parameter: AUC of viability dose-response curve. Scope: all listed entries.
- Tested on: P12-Ichikawa
- TEST: AUC of viability dose-response curve (% viability x log10 dose units); higher = less sensitive
- RECORDED_CONDITIONS: HPLM + 10% dialyzed FBS; 48 h
MEASUREMENT_KIND: AUC of viability dose-response curve

structure_as_smiles=CN(C)CCc1c[nH]c2ccc(C[C@H]3COC(=O)N3)cc12 result_value=405
structure_as_smiles=C=C1/C(=C\C=C2/CCC[C@]3(C)[C@@H]([C@H](C)/C=C/[C@H](C)C(C)C)CC[C@@H]23)C[C@@H](O)C[C@@H]1O result_value=399
structure_as_smiles=COc1cc2nc(N3CCCN(C)CC3)nc(NC3CCN(Cc4ccccc4)CC3)c2cc1OC result_value=407
